These data points were gathered from PubChem BioAssay AID504466.

Assay: qHTS screen for small molecules that induce genotoxicity in human embryonic kidney (HEK293T) cells expressing luciferase-tagged ELG1; also: nearly all actives have a fitted effect of over 60% in size
Details: HEK293T ELG1-luciferase reporter, luminescence, 16 h; series mostly up to 46 µM
The whole screen tested about 330,000 compounds, of which about 4,200 (1.3%) were called active. Not shown: some 6% with an inconclusive outcome. Calls follow the shape of the dose curve; as a rule, active = well fitted activation curve with a large enough effect; inconclusive = small, poorly fitted or top-dose-only effect; inactive = no such curve, though single readings can be large or run the other way. What follows is part of a selection rich in actives, with near analogues and random picks from the rest.
Answer with one of the outcomes active, inactive

Would you mind telling me which call this test gave Oc1ccccc1-c1cc(-c2ccc(Cl)cc2)n[nH]1 ?
active

Next: C[C@]12c3[nH]c4ccc(Cl)cc4c3CCN1C(=O)[C@@H](CC(=O)NCCCn1ccnc1)C[C@@H]2C(=O)N1CCOCC1
inactive

Next: CC1(C)CN(c2ccc(-c3ccnc4ncnn34)cc2)C1=O
active

Next: COc1cccc(Nc2nc(N)c([N+](=O)[O-])c(NCc3ccco3)n2)c1
inactive

Next: Oc1ccc(N=Cc2sc3ccccc3c2Cl)cc1
inactive
